- STUDY SYSTEM: Neu5Ac(a2-6)GlcNAc(b1-4)GlcNAc
- PROCEDURE DETAILS: glycan array binding signal (z-score within array); higher = stronger binding
- MEASUREMENT PARAMETERS: glycan notation: IUPAC condensed, linker removed
The entries come from a sample that favours the strongest signals as a whole.
PARAMETER: glycan array binding signal (z-score)
Please reply with the value in numeric form only.

Worked examples, 5 binders total:
rMpL (Macrolepiota procera) (protein) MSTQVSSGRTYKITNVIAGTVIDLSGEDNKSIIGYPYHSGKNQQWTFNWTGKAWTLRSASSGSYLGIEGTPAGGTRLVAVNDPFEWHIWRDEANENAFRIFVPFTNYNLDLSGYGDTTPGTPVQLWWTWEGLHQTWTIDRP: -0.364
rCnSL-proB (Clitocybe nebularis) (protein) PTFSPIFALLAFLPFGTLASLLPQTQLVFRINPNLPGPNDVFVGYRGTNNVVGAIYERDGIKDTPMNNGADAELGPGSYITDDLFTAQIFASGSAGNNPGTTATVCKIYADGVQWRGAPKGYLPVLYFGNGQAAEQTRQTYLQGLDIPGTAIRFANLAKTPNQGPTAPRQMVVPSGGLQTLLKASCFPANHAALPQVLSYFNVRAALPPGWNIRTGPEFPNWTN: -0.255
MPA (Maclura pomifera), P18674 (protein) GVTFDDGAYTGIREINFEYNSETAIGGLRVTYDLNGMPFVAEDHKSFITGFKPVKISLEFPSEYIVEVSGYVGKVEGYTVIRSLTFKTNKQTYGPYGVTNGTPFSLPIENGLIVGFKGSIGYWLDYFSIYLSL: -0.39
LSectin (Mus musculus), Q8BNX1 (protein) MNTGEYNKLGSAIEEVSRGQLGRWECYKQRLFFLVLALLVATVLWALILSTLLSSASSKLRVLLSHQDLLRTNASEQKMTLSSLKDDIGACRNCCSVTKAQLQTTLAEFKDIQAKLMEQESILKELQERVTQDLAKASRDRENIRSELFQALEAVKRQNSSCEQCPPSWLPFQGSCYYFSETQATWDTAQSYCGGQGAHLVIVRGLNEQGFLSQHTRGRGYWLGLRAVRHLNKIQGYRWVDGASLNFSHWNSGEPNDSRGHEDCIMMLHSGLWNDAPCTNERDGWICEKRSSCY: -0.18
Erv41-EDTA (Saccharomyces cerevisiae), Q04651 (protein) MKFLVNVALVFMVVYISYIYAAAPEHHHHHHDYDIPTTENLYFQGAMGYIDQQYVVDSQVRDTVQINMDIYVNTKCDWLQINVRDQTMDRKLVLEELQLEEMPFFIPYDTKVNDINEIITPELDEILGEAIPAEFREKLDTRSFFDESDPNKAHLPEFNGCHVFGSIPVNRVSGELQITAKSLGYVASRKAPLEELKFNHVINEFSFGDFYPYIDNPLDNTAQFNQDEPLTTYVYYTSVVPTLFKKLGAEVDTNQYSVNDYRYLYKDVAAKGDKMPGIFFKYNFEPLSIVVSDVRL: 0.004

Incoming: So what's the measured glycan array binding signal (z-score) for this one? ArathEULS3 TAP (Arabidopsis thaliana) (protein) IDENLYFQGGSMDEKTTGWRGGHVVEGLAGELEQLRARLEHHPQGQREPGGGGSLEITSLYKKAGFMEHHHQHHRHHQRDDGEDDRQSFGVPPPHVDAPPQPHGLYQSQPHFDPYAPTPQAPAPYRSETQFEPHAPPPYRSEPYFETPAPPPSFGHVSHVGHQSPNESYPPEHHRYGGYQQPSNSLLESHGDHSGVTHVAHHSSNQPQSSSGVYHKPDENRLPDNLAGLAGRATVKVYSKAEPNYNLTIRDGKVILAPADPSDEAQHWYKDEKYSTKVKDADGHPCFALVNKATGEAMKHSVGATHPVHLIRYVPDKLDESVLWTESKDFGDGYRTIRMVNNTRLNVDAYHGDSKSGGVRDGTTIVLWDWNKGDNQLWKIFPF
Outgoing: 1.18
